Would you kindly list pEC50 for each of these binders?
- tested on: T1, recombinant mouse IL-25 protein (mouse, UniProt Q8VHH8 17-169)
- T1 construct: Bought (Sino Biological Inc, catalog no: 50138-M07H)
- T1 sequence: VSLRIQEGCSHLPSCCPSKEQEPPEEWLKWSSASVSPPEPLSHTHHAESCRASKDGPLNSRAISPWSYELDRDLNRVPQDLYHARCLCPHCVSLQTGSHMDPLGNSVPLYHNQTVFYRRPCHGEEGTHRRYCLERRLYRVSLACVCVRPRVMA
- test name: ELISA, IL-25 coated, goat anti-human kappa light chain-HRP detection
Numbers only, as −log10 of the molar value.

Need pEC50 for each of these binders.
1. IL25Ab10 (antibody, V domains shown) VH: QVQLVQSGAEVKKPGASVKVSCKASGYSFTGYTMNWVRQAPGQGLEWMGLINPDNGGTSYKQKFQGRVTMTVDKSISTAYMELSRLRSDDTAVYYCAREGYYGPSPFHHYAMDYWGQGTLVTVSS VL: DIQMTQSPSSLSASVGDRVTITCQASQDISNYLNWYQQKPDGTIKLLIYYTSTLHTGVPSRFSGSGSGTDYTFTISSLQPEDIATYYCQQYSKLPYTFGQGTKLEIK
2. IL25Ab11 (antibody, IgG1, V domains shown) VH: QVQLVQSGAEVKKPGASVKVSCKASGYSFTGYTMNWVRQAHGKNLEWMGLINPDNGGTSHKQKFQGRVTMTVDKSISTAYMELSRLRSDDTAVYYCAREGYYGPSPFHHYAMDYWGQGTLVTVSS VL: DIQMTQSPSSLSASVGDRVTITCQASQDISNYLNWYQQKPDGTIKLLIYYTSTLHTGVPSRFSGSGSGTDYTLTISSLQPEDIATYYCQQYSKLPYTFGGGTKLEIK
3. IL25Ab6 (antibody, V domains shown) VH: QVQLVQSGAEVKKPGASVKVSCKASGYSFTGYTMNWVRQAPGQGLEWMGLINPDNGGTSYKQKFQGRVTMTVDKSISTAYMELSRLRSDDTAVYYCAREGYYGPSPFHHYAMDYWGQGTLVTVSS VL: DIQMTQSPSSLSASVGDRVTITCQASQDISNYLNWYQQKPGKAPKLLIYYTSTLHTGVPSRFSGSGSGTDYTFTISSLQPEDIATYYCQQYSKLPYTFGQGTKLEIK

-- reply
9.55
9.59
9.62

The reported measurements were obtained from patent US20260242458A1.
